# ASSAY TARGET: proton pump (H+/K+-ATPase)
# ASSAY NAME: Inhibition of proton pump (H+/K+-ATPase activity)
# Format: biochemical
# Design: Effect ratio
# SETUP CONDITIONS: relative to omeprazole IC50
Where a name gives a salt, the structure may show the parent alone.
Friendly reminder: Effect ratio below 4 is true, at or above is false.

COCc1nc(Nc2ccccc2)nc(N2CCc3ccccc3C2C)c1C.Cl (stereo not drawn) [Example 31]    false
Cc1nc(Nc2ccc(F)cc2)nc(N2CCc3c(O)ccc(O)c3C2C)c1C.Cl (stereo not drawn) [Example 43]    false
Cc1csc(Nc2nc(C)c(C)c(N3CCc4ccccc4C3)n2)n1.Cl [Example 23]    false

Query: Effect ratio strictly < 4 for this compound? COCc1nc(Nc2ccc(F)cc2C)nc(N2CCc3ccccc3C2C)c1C.Cl (stereo not drawn) [Example 29]
Result: false

Query: Effect ratio strictly < 4 for this compound? C=CCNc1nc(C)c(C)c(N2CCc3ccccc3C2)n1 [Example 2, hydrochloride]
Result: true

Query: Effect ratio strictly < 4 for this compound? COCCNc1nc(C)c(C)c(N2CCc3ccccc3C2)n1.Cl [Example 5]
Result: true

Query: Effect ratio strictly < 4 for this compound? Cc1csc(Nc2nc(C)c(C)c(N3CCc4ccccc4C3C)n2)n1.Cl (stereo not drawn) [Example 22]
Result: true

Query: Effect ratio strictly < 4 for this compound? COCc1nc(Nc2ccc(F)cc2)nc(N2CCc3ccccc3C2)c1C.Cl [Example 26]
Result: false

Query: Effect ratio strictly < 4 for this compound? Cc1nc(NCC(C)C)nc(N2CCc3ccccc3C2C)c1C (stereo not drawn) [Example 14]
Result: false

###

# ASSAY TARGET: proton pump (H+/K+-ATPase)
# ASSAY NAME: Inhibition of proton pump (H+/K+-ATPase activity)
# SETUP CONDITIONS: K+-stimulated proton pump activity, pH 6.0, 37° C., 30 minutes preincubation; read-out: IC50 (concentration inhibiting 50% of the proton pump activity)
MEASURED PROPERTY: IC50 (nM)
Write the answer as a number in nM, unit excluded.

Sample records with IC50:
Cc1nc(Nc2ccc(F)cc2)nc(N2CCc3c(O)ccc(O)c3C2C)c1C.Cl (centres unmarked) [Example 43, hydrochloride]    180
Cc1c(CO)nc(Nc2ccccc2)nc1N1CCc2ccccc2C1C.Cl (centres unmarked) [Example 32, hydrochloride]    1340
Cc1nc(NCC(C)C)nc(N2CCc3ccccc3C2C)c1C (centres unmarked)    2150
Cc1csc(Nc2nc(C)c(C)c(N3CCc4ccccc4C3C)n2)n1.Cl (centres unmarked) [Example 22, hydrochloride]    6690
COCc1nc(Nc2ccc(F)cc2)nc(N2CCc3ccccc3C2C)c1C.Cl (centres unmarked) [Example 28, hydrochloride]    1740
COCc1nc(Nc2ccc(F)cc2C)nc(N2CCc3ccccc3C2C)c1C.Cl (centres unmarked) [Example 29, hydrochloride]    2550
COCCNc1nc(C)c(C)c(N2CCc3ccccc3C2)n1.Cl [Example 5, hydrochloride]    6910

# ---- query compound ----
Query: Supply IC50 measured with proton pump (H+/K+-ATPase) for COCc1nc(Nc2ccc(F)cc2)nc(N2CCc3ccccc3C2)c1C.Cl [Example 26, hydrochloride] .
Result: 2600

###

# ASSAY TARGET: proton pump (H+/K+-ATPase)
# ASSAY NAME: Inhibition of proton pump (H+/K+-ATPase activity)
# Assay type: biochemical
# Parameters: Effect ratio
# SETUP CONDITIONS: relative to omeprazole IC50
MEASURED PROPERTY: Effect ratio
The answer should be a number; do not append a unit.

Sample records with Effect ratio:
Cc1ccccc1Nc1nc(CO)c(C)c(N2CCc3ccccc3C2C)n1.Cl (stereo not drawn)    25.8
CCCNc1nc(COC)c(C)c(N2CCc3ccccc3C2)n1.Cl    6.0
COCc1nc(Nc2ccc(F)cc2C)nc(N2CCc3ccccc3C2)c1C.Cl    7.2
COCc1nc(Nc2ccc(F)cc2)nc(N2CCc3ccccc3C2C)c1C.Cl (stereo not drawn)    6.4
Cc1nc(Nc2ccc(F)cc2)nc(N2CCc3cc(O)ccc3C2C)c1C.Cl (stereo not drawn)    35.8

# ---- query compound ----
Query: For the compound Cc1c(CO)nc(Nc2ccccc2)nc1N1CCc2ccccc2C1C.Cl (stereo not drawn) , report Effect ratio.
Result: 8.3
